Would you kindly list EC50 for each of these compounds?
Target Entity: PAK2 (PAK65) (Homo sapiens)
Sequence (Q13177 whole entry): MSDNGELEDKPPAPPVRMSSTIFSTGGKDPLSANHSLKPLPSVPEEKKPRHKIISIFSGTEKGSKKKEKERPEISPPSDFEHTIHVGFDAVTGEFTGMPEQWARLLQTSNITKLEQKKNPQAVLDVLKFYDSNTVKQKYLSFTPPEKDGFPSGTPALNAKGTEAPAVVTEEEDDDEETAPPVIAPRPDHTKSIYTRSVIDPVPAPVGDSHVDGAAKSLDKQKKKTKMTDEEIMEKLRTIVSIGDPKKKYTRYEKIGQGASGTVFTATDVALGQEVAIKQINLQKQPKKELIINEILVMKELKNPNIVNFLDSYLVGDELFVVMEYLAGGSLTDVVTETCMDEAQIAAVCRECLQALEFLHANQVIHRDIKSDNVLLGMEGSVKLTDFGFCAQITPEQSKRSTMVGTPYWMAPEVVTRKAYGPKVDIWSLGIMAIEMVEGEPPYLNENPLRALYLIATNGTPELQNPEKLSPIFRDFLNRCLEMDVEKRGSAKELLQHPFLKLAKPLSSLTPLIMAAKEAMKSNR
Test Description: SelectScreen kinase specificity survey
Measurement Setup: estimated, abridged dose response curve, read-out: Kinase inhibitory activity EC50

                                   compound  experimental_value
0  CCN(CC)CCNc1ccc2ncn3c4ccc(O)cc4c(=O)c1c23 [Symadex, reference compound]              > 5 µM

Field: next compound
Note EC50 for the compound shown: CN(C)CCCNc1ccc2ncn3c4ccc5[nH]ncc5c4c(=O)c1c23 [Compound (IV)]
> 5 µM

----------
Target Entity: MAPK13 (p38 delta) (Homo sapiens, UniProt O15264)
Sequence (O15264 1-365): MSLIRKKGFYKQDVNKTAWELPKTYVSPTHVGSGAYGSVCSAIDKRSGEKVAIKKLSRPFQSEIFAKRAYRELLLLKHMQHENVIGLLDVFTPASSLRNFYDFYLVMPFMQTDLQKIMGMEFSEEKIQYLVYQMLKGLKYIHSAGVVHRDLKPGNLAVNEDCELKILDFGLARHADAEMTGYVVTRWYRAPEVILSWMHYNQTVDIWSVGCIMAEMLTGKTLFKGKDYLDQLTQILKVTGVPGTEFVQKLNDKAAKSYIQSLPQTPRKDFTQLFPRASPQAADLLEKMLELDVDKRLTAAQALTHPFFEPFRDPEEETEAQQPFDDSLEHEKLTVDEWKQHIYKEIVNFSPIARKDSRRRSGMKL
Test Description: SelectScreen kinase specificity survey
Measurement Setup: estimated, abridged dose response curve, read-out: Kinase inhibitory activity EC50
pEC50: −log10 of the molar value.
Would you kindly list pEC50 for each of these compounds?

>>> df
                                   compound                             target_entity  experimental_value
0  CN(C)CCCNc1ccc2ncn3c4ccc5[nH]ncc5c4c(=O)c1c23  MAPK13 (p38 delta) (Homo sapiens, UniProt O15264)              < 5.30

Note pEC50 for the compound shown: CCN(CC)CCNc1ccc2ncn3c4ccc(O)cc4c(=O)c1c23 [Symadex, reference compound]
< 5.30

----------
Target Entity: MAP3K8 (COT) (Homo sapiens)
Sequence (P41279 whole entry): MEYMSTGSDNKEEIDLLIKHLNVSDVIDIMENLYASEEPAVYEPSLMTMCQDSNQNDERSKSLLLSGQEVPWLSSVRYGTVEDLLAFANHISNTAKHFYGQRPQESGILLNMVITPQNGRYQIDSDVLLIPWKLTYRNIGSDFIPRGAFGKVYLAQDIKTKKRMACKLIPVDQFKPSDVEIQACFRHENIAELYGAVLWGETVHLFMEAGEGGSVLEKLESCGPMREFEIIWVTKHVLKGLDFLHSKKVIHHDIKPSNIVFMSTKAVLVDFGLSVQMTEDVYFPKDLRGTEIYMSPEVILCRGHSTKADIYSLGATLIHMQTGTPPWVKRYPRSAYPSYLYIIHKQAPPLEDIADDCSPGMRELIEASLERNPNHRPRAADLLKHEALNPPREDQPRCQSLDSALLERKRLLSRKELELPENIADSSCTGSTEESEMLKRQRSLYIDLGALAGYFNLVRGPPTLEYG
Test Description: SelectScreen kinase specificity survey
Measurement Setup: estimated, abridged dose response curve, read-out: Kinase inhibitory activity EC50
Measurement Label: EC50 (µM)
Give bare numbers, in µM.

Note EC50 for the compound shown: CCN(CC)CCNc1ccc2ncn3c4ccc(O)cc4c(=O)c1c23 [Symadex, reference compound]
4.63

----------
System: MdaMb231 cells
Test Description: in vitro scratch (cell migration) assay
Type: cell-based
Measurement Setup: Table 5 summary; concentration inhibiting migration
Measurement Label: Migration (μm)
Give bare numbers, in μm.

>>> print(df.to_string())
                                   molecule  unit  experimental_value
0  CCN(CC)CCCNc1ccc2ncn3c4ccc5[nH]ncc5c4c(=O)c1c23 [Compound (XV)]    μm                   1

Please supply Migration for each of the following items, keeping them in order.
1. CCN(CC)CCNc1ccc2ncn3c4ccc(O)cc4c(=O)c1c23 [Symadex, reference compound]
2. CN(C)CCCNc1ccc2ncn3c4ccc5[nH]ncc5c4c(=O)c1c23 [Compound (IV)]
3. CC(CCN1CCOCC1)Nc1ccc2ncn3c4ccc5[nH]ncc5c4c(=O)c1c23 (stereo not shown) [(XVI)]

1: 10; 2: 1; 3: 1

Please supply Migration for each of the following items, keeping them in order.
1. O=c1c2c(NCCCN3CCOCC3)ccc3ncn(c4ccc5[nH]ncc5c14)c32 [(X)]
2. CN1CCN(CCCNc2ccc3ncn4c5ccc6[nH]ncc6c5c(=O)c2c34)CC1 [(XVII)]

5
5

----------
Target Entity: UniProt Q5VT25
Sequence (Q5VT25 whole entry): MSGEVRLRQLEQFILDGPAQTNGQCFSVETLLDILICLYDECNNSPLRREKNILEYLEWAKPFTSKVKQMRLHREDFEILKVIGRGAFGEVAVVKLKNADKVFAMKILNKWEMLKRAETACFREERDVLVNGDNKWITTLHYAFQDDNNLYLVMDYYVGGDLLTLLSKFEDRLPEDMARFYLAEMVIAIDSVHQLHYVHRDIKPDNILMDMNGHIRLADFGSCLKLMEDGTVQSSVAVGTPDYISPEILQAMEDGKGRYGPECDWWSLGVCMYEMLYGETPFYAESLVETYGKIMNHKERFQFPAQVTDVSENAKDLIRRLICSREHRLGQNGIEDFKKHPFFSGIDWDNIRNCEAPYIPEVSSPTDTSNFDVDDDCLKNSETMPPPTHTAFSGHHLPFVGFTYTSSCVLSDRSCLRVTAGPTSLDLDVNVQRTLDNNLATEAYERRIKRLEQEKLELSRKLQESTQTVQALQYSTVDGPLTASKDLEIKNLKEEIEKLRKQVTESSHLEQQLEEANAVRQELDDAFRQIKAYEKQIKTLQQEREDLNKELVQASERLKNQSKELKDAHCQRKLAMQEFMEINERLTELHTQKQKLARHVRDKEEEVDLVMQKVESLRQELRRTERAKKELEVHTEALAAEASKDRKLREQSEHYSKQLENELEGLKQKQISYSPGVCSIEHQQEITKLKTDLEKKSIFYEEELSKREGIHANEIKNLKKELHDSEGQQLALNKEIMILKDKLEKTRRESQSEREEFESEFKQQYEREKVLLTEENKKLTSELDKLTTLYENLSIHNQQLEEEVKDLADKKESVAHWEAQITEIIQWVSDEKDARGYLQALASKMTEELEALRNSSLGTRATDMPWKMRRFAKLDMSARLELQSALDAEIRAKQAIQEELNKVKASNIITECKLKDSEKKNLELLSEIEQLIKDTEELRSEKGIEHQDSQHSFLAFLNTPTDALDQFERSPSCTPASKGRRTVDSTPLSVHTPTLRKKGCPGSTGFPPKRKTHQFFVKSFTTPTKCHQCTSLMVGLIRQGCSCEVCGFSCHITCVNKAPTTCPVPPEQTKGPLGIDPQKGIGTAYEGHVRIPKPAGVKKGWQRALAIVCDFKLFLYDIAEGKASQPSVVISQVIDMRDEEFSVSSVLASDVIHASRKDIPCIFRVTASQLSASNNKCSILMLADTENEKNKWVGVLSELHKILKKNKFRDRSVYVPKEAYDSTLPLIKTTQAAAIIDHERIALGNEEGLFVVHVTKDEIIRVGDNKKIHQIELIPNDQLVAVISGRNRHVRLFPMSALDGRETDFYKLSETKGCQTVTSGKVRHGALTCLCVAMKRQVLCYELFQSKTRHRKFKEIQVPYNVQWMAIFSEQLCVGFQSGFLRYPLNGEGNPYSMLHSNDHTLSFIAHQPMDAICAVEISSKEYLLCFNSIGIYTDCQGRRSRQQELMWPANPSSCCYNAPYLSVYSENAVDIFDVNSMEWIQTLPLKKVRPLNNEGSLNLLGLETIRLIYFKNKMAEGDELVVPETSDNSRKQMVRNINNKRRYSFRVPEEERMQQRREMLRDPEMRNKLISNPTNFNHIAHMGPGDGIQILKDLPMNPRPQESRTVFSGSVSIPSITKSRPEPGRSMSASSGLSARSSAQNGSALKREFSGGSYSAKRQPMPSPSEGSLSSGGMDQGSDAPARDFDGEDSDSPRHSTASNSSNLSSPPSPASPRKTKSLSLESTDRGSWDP
Test Description: SelectScreen kinase specificity survey
Measurement Setup: estimated, abridged dose response curve, read-out: Kinase inhibitory activity EC50
Experimental: Testing of the compounds described in this invention was carried out using the SelectScreen™ platform from Invitrogen, Inc. (Carlsbad. Calif., USA) and the details of its performance are readily viewed via the web by linking to: http://www.invitrogen.com/downloads/SelectScrn_Brochure.pdf. Briefly, the approach is based on treating each specific kinase with a unique substrate and optical reporter system in the presence of ATP at 100 micromolar. […]
pEC50: −log10 of the molar value.
Would you kindly list pEC50 for each of these compounds?

                                   compound  measurement_label  experimental_value
0  CN(C)CCCNc1ccc2ncn3c4ccc5[nH]ncc5c4c(=O)c1c23 [Compound (IV)]              pEC50              < 5.30

Note pEC50 for the compound shown: CCN(CC)CCNc1ccc2ncn3c4ccc(O)cc4c(=O)c1c23 [Symadex, reference compound]
< 5.30

----------
Target Entity: BaF3-D835Y (Homo sapiens, UniProt P36888, D835Y, cells depend on it)
Sequence (P36888 1-993 D835Y): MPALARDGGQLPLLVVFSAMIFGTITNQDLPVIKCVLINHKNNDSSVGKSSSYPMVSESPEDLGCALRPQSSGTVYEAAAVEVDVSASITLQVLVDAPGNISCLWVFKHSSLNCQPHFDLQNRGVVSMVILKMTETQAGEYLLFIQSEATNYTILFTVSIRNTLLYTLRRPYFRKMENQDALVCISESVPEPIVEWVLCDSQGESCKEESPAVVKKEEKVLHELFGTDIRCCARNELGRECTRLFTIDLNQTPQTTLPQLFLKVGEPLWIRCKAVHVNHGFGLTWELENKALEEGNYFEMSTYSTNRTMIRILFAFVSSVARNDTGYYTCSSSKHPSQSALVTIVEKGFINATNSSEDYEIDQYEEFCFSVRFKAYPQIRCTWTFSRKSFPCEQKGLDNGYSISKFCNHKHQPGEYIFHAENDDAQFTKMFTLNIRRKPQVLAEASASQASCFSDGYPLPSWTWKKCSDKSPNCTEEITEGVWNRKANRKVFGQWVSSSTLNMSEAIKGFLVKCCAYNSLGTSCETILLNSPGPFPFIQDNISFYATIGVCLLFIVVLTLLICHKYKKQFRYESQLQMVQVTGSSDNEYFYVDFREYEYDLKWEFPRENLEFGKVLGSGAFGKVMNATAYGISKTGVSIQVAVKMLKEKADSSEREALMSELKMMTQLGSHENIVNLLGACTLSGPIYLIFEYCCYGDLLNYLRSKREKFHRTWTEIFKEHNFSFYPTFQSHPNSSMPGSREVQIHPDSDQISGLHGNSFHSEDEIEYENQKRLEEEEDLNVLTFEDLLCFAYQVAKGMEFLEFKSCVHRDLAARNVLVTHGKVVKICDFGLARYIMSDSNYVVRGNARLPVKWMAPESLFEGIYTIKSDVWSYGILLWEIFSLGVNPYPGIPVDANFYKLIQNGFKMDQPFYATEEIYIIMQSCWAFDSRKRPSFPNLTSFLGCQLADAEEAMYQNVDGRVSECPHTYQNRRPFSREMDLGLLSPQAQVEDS
Test Description: MTS cellular proliferation assay
Assay type: cell-based
Measurement Setup: 72 hour incubation, read-out: Growth inhibitory activity (in vivo EC50 nM)
I'd appreciate it if you marked entries true when EC50 is lower than 200 nM and false when it is not.

Sample answers from the record:
>>> print(df.to_string())
                                   molecule  assigned_label
0  CCN(CC)CCNc1ccc2ncn3c4ccc(O)cc4c(=O)c1c23 [Symadex, reference compound]            true
1  CN(C)c1ccc2ncn3c4ccc5[nH]ncc5c4c(=O)c1c23 [(IX)]           false
2  O=c1c2c(NCCN3CCOCC3)ccc3ncn(c4ccc5[nH]ncc5c14)c32 [Compound (V)]            true
3  O=c1c2c(NCCCN3CCOCC3)ccc3ncn(c4ccc5[nH]ncc5c14)c32 [(X)]            true
4  CCN(CC)c1ccc2ncn3c4ccc5[nH]ncc5c4c(=O)c1c23 [(VI)]            true

Hi there! Is EC50 for CCN(CC)CCNc1ccc2ncn3c4ccc5[nH]ncc5c4c(=O)c1c23 [(VIII)] below 200 nM, do you know?
true

Hi there! Is EC50 for CN(C)CCCNc1ccc2ncn3c4ccc5[nH]ncc5c4c(=O)c1c23 [Compound (IV)] below 200 nM, do you know?
true

Hi there! Is EC50 for CN(C)CCCCCNc1ccc2ncn3c4ccc5[nH]ncc5c4c(=O)c1c23 [(III)] below 200 nM, do you know?
false

Hi there! Is EC50 for CNc1ccc2ncn3c4ccc5[nH]ncc5c4c(=O)c1c23 [(VII)] below 200 nM, do you know?
true

----------
Target Entity: AMPK A2/B1/G1 (Homo sapiens, UniProt P54619+P54646+Q9Y478)
Construct: purchased Invitrogen, Inc. (SelectScreen platform)
Sequence (P54646 whole entry): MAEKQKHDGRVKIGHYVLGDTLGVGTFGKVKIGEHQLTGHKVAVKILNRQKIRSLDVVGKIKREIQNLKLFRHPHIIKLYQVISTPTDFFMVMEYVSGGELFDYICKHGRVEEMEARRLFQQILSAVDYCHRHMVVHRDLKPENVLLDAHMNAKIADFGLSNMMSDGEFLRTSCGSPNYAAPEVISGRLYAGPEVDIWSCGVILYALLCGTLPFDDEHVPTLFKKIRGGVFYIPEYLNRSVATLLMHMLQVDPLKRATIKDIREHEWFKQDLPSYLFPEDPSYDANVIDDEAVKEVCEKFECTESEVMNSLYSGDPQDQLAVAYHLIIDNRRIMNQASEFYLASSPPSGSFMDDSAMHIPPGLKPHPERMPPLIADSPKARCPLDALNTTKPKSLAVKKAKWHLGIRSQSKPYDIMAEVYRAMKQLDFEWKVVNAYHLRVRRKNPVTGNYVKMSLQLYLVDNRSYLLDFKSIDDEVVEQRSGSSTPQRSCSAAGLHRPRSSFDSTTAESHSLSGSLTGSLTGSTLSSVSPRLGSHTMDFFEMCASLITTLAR
Sequence (Q9Y478 whole entry partner): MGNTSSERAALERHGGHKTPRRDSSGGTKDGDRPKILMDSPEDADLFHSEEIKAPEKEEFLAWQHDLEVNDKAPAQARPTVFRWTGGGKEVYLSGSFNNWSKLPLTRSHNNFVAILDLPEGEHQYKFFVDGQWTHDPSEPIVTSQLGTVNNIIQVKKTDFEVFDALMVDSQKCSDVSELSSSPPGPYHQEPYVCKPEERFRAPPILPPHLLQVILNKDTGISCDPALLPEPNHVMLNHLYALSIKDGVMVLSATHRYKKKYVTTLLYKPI
Sequence (P54619 whole entry partner): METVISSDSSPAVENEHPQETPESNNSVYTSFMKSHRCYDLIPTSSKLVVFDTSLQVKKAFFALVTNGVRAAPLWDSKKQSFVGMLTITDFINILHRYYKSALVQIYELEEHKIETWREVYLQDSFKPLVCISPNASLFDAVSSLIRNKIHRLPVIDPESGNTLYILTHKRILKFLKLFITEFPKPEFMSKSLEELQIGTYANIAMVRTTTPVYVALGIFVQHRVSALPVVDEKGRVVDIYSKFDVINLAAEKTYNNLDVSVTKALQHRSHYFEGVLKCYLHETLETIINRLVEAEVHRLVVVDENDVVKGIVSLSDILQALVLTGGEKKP
Test Description: SelectScreen kinase specificity survey
Type: biochemical
Measurement Setup: estimated, abridged dose response curve, read-out: Kinase inhibitory activity EC50
Would you kindly list pEC50 for each of these compounds?
Numbers only, as −log10 of the molar value.

>>> print(df.to_string())
                                   compound  experimental_value
0  CCN(CC)CCNc1ccc2ncn3c4ccc(O)cc4c(=O)c1c23 [Symadex, reference compound]                5.75

Give pEC50; test system AMPK A2/B1/G1 (Homo sapiens, UniProt P54619+P54646+Q9Y478); compound CN(C)CCCNc1ccc2ncn3c4ccc5[nH]ncc5c4c(=O)c1c23
5.80
